test system: MS2 coat protein; experiment: apparent KD of MS2 coat protein; designed switch direction (-1 OFF switch, 1 ON switch): -1; higher = weaker reporter binding; conditions: input ligand: FMN 200 uM
Assignment: determine reported apparent KD of MS2 coat protein for the given sequences.
Numbers only, in nM.

GUGGUACAUGAGGAUCACCCAUGUGAGGAUAUAGUCGGCUGGUGGUCGCGGGUGGUGGCUAGAAGGUGCGUGCG [-19.3, -16.9 kcal, A 18%] (Eterna round: R97, puzzle: Exclusion 1)    171

Batch: apparent KD of MS2 coat protein for all items listed.
1. AAUUCCGUAGGAUAUGGGAACCGGGACAUGAGGAUCACCCAUGUGAAGGAUGUCCCAACACCAGAAGGACGCAGCA [EX5 A.14] (Eterna round: R97, puzzle: Exclusion 5)
2. AAAGAAAAGAAAGGAUAUAGCGCAGAACCGCAGCUAGAAGGUUCGGUGGGUAUCCUGUAACAUGAGGAUCACCCAUGUAAAGAG [Tire] (Eterna round: R96, puzzle: Exclusion NG 1)
3. CCCAGUUAUUCAGGAUAUUGUACAUGAGGAUCACCCAUGUAAUAAAUGAGGAUUUCGGGUGUCUACAAGAAGGGAAGGAUAGGC [Ostracism 19 - Jieux - Exclusion NG 2] (Eterna round: R96, puzzle: Exclusion NG 2)
4. UGCCUAUGAGGAUAUACAUUGAAUAAGAUUCAUGUAAAACUACAUGAGGAUCACCCAUGUAGAAGGCAUGGGCU [Mat - Exclusion 2 - JL Mod - D70] (Eterna round: R97, puzzle: Exclusion 2)
5. UACAUGAGGAUCACCCAUGUUUUGUCGUGUAUGGUAUUUAUCUAGGAUAUCAAGUUAUUUAUUUAUGAGAAGGAGAAUAUUAAU [JMF's solution 10] (Eterna round: R96, puzzle: Exclusion NG 3)
6. UACACUGCAUGAGGAUCAAACAUGAGGAUCACCCAUGUAUAGCAAGCUUUUUGCACGUCUUAUAAUUAUGUAGUGUA [Electric Eye 13 - Jieux - Sensor, turn-off variant 1] (Eterna round: R97, puzzle: Sensor, turn-off variant 1)

1: 47; 2: 69.9; 3: 26.5; 4: 29; 5: 40; 6: 15.1

Provide each entry's apparent KD of MS2 coat protein from the list below.
1. AGUCCUGGAGUUAGGAUAUGGAGUAUCACUGCACUUCAGAAGGGACUUGAGGAUCACCCAAGUAGCCGUGAGGG [salish99_bmod_ex4_r4_004] (Eterna round: R97, puzzle: Brourd's mod of Exclusion 4)
2. AGCUUUUUGUUCGUCUUAUACAUGAGGAUCACCCAUGUAUUGGACCGCAUCGAUAGAUGUAGACCAAGAAGCAUGGG [Omdei Mir OFFv1 C5] (Eterna round: R97, puzzle: Sensor, turn-off variant 1)

1: 74.3; 2: 50.6

###

system: MS2 coat protein; assay: apparent KD of MS2 coat protein; designed switch direction (-1 OFF switch, 1 ON switch): -1; higher = weaker reporter binding; conditions: input ligand: FMN 200 uM
Could you please report measured apparent KD of MS2 coat protein for the items listed next?
One number for each entry, in µM.

Reference set (3 entries):
AGAUCUAGGACAGGAUAUACCGAUGGCUUCAUCGAAGAUGAAGCCAUCACAUGAGGAUCACCCAUGUAGAAGGGUCCUAGAUCA [Omei Exc(NG) 2Av9] (Eterna round: R96, puzzle: Exclusion NG 2)    0.0115
GAUUAGCAAGUGAGAUCCCACAUGAGGAUCACCCAUGUGCUCGUCUUAUAAGGUACUGUGACGAAAGUCACGGUACC [Mat - Sensor, turn-off var - Eli Mod - D6] (Eterna round: R97, puzzle: Sensor, turn-off variant 1)    0.424
AGGCCUCGAGGAUAUACAUGAGGAUCACCCAUGUCAUAAUAGAUUGUUAUGAGACAUCGUAGAAGGCGAUGGCC [Eternabot (L2) Solution 98] (Eterna round: R97, puzzle: Exclusion 3)    0.0781

Moving on to another sequence below.
The measured apparent KD of MS2 coat protein associated with UAUUUAUAUGAAGGAUAUACUUAACAUGAGGAUCACCCAUGUGGUGUUGUGAGUGAGUGAGUUUAGUAGAAGGUCAAUUCUUUU [JMF's solution 96] (Eterna round: R96, puzzle: Exclusion NG 2) reads 0.893
